Every entry's value here was drawn from patent EP4585616A1.

Molecular target: T1, ROR1 extracellular segment with Ig-like domain removed on CHO cells (human, UniProt Q01973 30-472, limits assumed)
T1 construct: Transfected into CHO cells; also called CHO-ROR1 (with Ig-like domain removed)
T1 sequence (Q01973 other isoform, or with tags, fused parts or gaps limits assumed): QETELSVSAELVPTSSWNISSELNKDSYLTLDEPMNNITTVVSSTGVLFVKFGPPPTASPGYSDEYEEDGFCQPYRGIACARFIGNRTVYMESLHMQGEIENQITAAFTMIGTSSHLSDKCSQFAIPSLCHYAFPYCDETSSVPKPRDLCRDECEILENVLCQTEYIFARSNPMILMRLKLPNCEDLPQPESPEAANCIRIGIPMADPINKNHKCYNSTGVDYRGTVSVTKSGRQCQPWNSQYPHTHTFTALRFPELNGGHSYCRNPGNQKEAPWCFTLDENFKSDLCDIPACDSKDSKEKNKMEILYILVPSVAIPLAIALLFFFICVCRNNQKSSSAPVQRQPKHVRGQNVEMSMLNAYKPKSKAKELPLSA
Assay: FACS, CHO-ROR1 (with Ig-like domain removed) cells
// reported EC50 for each item listed
quantity: EC50 (nM)

>  <binder>
mAb001c (antibody, V domains shown, Human-mouse chimeric; also called human-mouse chimeric antibody mAb001c) VH: EVRLQQSGPVLVKPGASVKMSCKASGYTFTDYNLHWVKQSHRQSLEWIGYINPNHDGTSYNQKFQGKATLTVDRSSSTAYMEFRSLTSEDSAVYYCARRVRTGTGLDDWGQGTTLTVSS VL: DVLMTQSPLSLPVSLGDQASISCRSSHNIVHTNGNTYLEWYLQKPGQSPKLLIYKVSNRFSGVPDRFSGSGSGTYFTLTISRVEAEDLGVYYCFQGSRFPYTFGGGTKLEIK

>  <quantity>
EC50

>  <measured_value>
0.36

$$$$
>  <binder>
mAb008c (antibody, V domains shown, Human-mouse chimeric) VH: EVQLQQSGPELVKPGASVKMSCKASEYTFTDYNMHWVKQSHGKSLEWIGYINPNNGGTTYNQKFKGKATLTVNKSSSTAYMELRSLTSDDSAVYYCARRGYGSGYAMDYWGQGASVTVSS VL: DVLLTQTPLSLPVSLGDRASISCTSSQSIVHTNGNTYLEWYLQNPGQSPKLLIYKVSNRFSGVPDRFSGSGSGTDFTLKISRVEAEDLGVYYCFQGSLFPYTFGGGTKLEIK

>  <quantity>
EC50

>  <measured_value>
0.37

$$$$
>  <binder>
mAb009c (antibody, V domains shown, Human-mouse chimeric) VH: EVQLQQSGPELVKPGASLKLSCKASGYTFPDYNIHWVKQSHGKSLEWIGYINPNNGNTNYNQKFEGKATLTVSKSSSTAYMELRSLTSDDSAVYSCARRGYGSSYAMDFWGQGTSVTVSS VL: DVLMTQTPLSLPVSLGNQASISCRSSHIIVHTNGNTYLEWYLQKPGQSPKLLIYKVSNRFSGVPDRFSGSGSGTDFTLKISRVEAEDLGVYYCFQGSRVPYTFGGGTKLEIK

>  <quantity>
EC50

>  <measured_value>
0.45

$$$$
>  <binder>
mAb007c (antibody, V domains shown, Human-mouse chimeric) VH: EVQLQQSGPELVKPGASVKMSCKASGYTFTDYNMHWVKQSHGKSLEWIGYINPNNGGTSYNQKFKGKATLTVNKSSSTAYMELRSLTSDDSAVYYCARRGYGSGYAMDYWGQGTSVTVSS VL: DVLMTQTPLSLPVSLGDQASISCRSSQSIVHTNGNTYLEWYLQNPGQSPKLLIYKVFNRFSGVPDRFSGSGSGTDFTLKISRVEAEDLGVYYCFQGSLFPYTFGGGTKLEIK

>  <quantity>
EC50

>  <measured_value>
0.36

$$$$
>  <binder>
mAb004c (antibody, V domains shown, Human-mouse chimeric) VH: EVQLVESGGGLVQPKGSLKLSCAASGFTFNTYAMHWVRQAPGKGLEWVARIRSKSSNFATYYADSVRDRFTISRDDSQSMLYLQMNNLKTEDTAMYYCVRGYGPSYFSLDYWGQGTSVTVSS VL: DVVMTQTPLSLPVSLGDQASISCRSSQSLVHSNGNTYLHWYLQKPGQSPKLLIYKVSNRFSGVPDRFSGSGSGTDFTLKINRVEAEDLGVYFCSQSTHAIYTFGGGTKLEIK

>  <quantity>
EC50

>  <measured_value>
0.35

$$$$
>  <binder>
mAb006c (antibody, V domains shown, Human-mouse chimeric) VH: EVQLQQSGPELVKPGASLKMSCKASGYTFPDYNIHWVKQSHGKSLEWIGYINPNNGGTTYNQKFKGKATLTVSKSSSTAYMELRSLTSEDSAVYSCARRGYGSSYAMDYWAQGTSVTVSS VL: DVLMTQSPLSLPVSLGDQASISCRSSHIIVHTNGNTYLEWYLQKPGQSPKLLIYKVSNRFSGVPDRFSGSGSGTDFTLKISRVEAEDLGVYYCFQGSRVPYTFGGGTKLEIK

>  <quantity>
EC50

>  <measured_value>
0.37

$$$$
